- method-summary: Single-dose pharmacokinetic study in mice
- Type: in vivo, male C57BL/6 mice
- assay-context: male, C57BL/6, mouse, plasma, IV: 1 mg/kg PO: 5 mg/kg
property: bioavailability (%)
# number only, unit % dropped from output

Need bioavailability, item C[C@]1(c2ccc(-c3[nH]c4cc(F)cc5c4c3CONC5=O)cc2)CCCN1 24.8

----------
- method-summary: Protein binding rate in plasma (equilibrium dialysis), SD rat
- Type: in vitro ADME
- assay-context: 4 h dialysis
property: fraction unbound at 4 h, 2 μM
Give the value as a plain number.

Need fraction unbound at 4 h, 2 μM, item C[C@]1(c2ccc(-c3[nH]c4cc(F)cc5c4c3CONC5=O)cc2)CCCN1 0.077

----------
- method-summary: Single-dose pharmacokinetic study in mice
- Format: in vivo, male C57BL/6 mice
- assay-context: male, C57BL/6, mouse, plasma, IV: 1 mg/kg PO: 5 mg/kg, read-out: Apparent volume of distribution
property: Vd (L/kg)
# number only, unit L/kg dropped from output

Need Vd, item C[C@]1(c2ccc(-c3[nH]c4cc(F)cc5c4c3CONC5=O)cc2)CCCN1 9.44

----------
- method-summary: Single-dose pharmacokinetic study in mice
- Assay type: in vivo, male C57BL/6 mice
- assay-context: male, C57BL/6, mouse, plasma, IV: 1 mg/kg PO: 5 mg/kg, read-out: Clearance rate
property: clearance (mL/min/kg)
# number only, unit mL/min/kg dropped from output

Need clearance, item C[C@]1(c2ccc(-c3[nH]c4cc(F)cc5c4c3CONC5=O)cc2)CCCN1 [Compound 1] 41

----------
- method-summary: Single-dose pharmacokinetic study in mice
- Assay type: in vivo, male C57BL/6 mice
- assay-context: male, C57BL/6, mouse, plasma, PO 5 mg/kg, read-out: AUC0-last (oral)
- Method: Objectives: To evaluate the pharmacokinetic behavior in male C57BL/6 mice and to determine the drug concentrations of the compound in the plasma, liver and cerebrospinal fluid after a single dose. Procedures: Healthy adult male C57BL/6 mice were selected for intragastric administration. […] After pretreatment of the samples, the drug concentration was measured by LC-MS/MS, and pharmacokinetic parameters were calculated using Phoenix WinNonlin software.
Catalogue of AUC(0-t) values
# number only, unit µM·h dropped from output

{"columns": ["molecule", "property", "experimental-value"],
 "data": [
  ["C[C@]1(c2ccc(-c3[nH]c4cc(F)cc5c4c3CONC5=O)cc2)CCCN1", "AUC(0-t)", 1.19]
]}

Need AUC(0-t), item CNCc1ccc(-c2[nH]c3cc(F)cc4c3c2CCNC4=O)cc1 [Rucaparib, reference compound] 0.145

----------
- method-summary: Protein binding rate in plasma (equilibrium dialysis), CD-1 mouse
- Type: in vitro ADME
- assay-context: CD-1 mouse plasma, 4 h dialysis
property: fraction unbound at 4 h, 2 μM
Give the value as a plain number.

Need fraction unbound at 4 h, 2 μM, item C[C@]1(c2ccc(-c3[nH]c4cc(F)cc5c4c3CONC5=O)cc2)CCCN1 [Compound 1] 0.104

----------
- experimental-system: UniProt:P08684
- Sequence (P08684 whole entry): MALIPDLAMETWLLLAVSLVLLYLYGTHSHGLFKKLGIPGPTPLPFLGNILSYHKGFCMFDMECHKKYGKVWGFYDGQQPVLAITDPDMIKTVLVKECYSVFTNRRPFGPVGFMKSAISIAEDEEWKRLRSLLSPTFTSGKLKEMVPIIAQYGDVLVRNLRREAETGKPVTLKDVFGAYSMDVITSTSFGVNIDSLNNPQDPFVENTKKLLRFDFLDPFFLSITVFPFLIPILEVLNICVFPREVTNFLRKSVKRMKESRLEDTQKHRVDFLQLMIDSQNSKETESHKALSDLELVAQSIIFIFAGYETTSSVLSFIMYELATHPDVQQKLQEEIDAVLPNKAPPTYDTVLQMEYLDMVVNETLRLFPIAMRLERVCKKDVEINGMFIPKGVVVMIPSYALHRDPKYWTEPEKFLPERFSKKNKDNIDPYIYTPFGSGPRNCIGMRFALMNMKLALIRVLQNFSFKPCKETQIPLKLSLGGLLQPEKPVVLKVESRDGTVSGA
- method-summary: Inhibition against cytochrome P450 isoenzymes, CYP3A4-M
- Assay type: in vitro ADME
- assay-context: human liver microsomes
property: IC50 (µM)
# number only, unit µM dropped from output

Need IC50, item C[C@]1(c2ccc(-c3[nH]c4cc(F)cc5c4c3CONC5=O)cc2)CCCN1 32.9
